- Test method notes: endothelial E-selectin expression blockers – imaging, HUVEC, immunofluorescence, MLSMR starter and 10KST1 sets, primary screen (AID 487);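 on nuclei count: 100% = median nuclei count of all wells on the same plate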
- Condition summary: HUVEC TNFalpha-induced E-selectin immunofluorescence imaging, at 2 µM; measured here: cell number, toxicity
Parameter measured: nuclei count (%)
Please give a number only; it is taken to be in %.

Compound	Parameter measured	Measurement units	Numeric value
Fc1ccc(-c2nnc(CN3CCN(c4ncc(C(F)(F)F)cc4Cl)CC3)o2)cc1	nuclei count	%	124
COc1ccc(OC)c(NC(=O)CSc2nnc(-c3ccco3)n2-c2ccccc2)c1	nuclei count	%	98.9
Cc1cc(C)nc(SCc2nnc(SCC(=O)Nc3ncc(C)s3)n2Cc2ccco2)n1	nuclei count	%	103
CC1CCCC(NC(=O)CSc2ncccc2C(=O)O)C1C (stereo unspecified)	nuclei count	%	112
Cc1cc(OCC(=O)N2CCOCC2)cc2oc(=O)c3ccccc3c12	nuclei count	%	124
COc1ccc(C(O)Cn2c(=N)n(CCCN(C)C)c3ccccc32)cc1 (stereo unspecified)	nuclei count	%	112
c1ccc2nc(-c3nc4ccccc4[nH]3)ccc2c1	nuclei count	%	101
COC(=O)C(C)C1Sc2ccccc2NC1=O (stereo unspecified)	nuclei count	%	131
C=Cn1c(N2CCOCC2)nc2c1c(=O)[nH]c(=O)n2C	nuclei count	%	115
Cc1ccc2[nH]c(=O)c(C(c3nnnn3CCc3ccccc3)N3CCOCC3)cc2c1 (stereo unspecified)	nuclei count	%	95.6

// fetch nuclei count given entry Cc1ccc(CN2C(=O)CCC2C(=O)NCCCN2CCCC(C)C2)cc1 (stereo unspecified)
129

Check the records and state nuclei count for O=C(CSc1nnc(-c2ccccc2)o1)NC1CCCCC1
103

Give nuclei count for O=c1nc(N2CCCC2)nc(Nc2ccccc2)[nH]1
115

Identify measured nuclei count associated with COc1ccc(C(=O)OCC(=O)NCc2ccco2)cc1OC
121

Provide one value: measured nuclei count of COc1ccc2nc(NC(=O)CSc3nnc(-c4ccoc4C)n3C)sc2c1
104

Fill in reported nuclei count for this entry: COc1ccccc1CCNC(=O)C1CCCO1 (stereo unspecified)
98.9

Give a short answer stating reported nuclei count for COc1cc(Cn2c(-c3nonc3N)nc3ccccc32)ccc1C .
99.4

Provide only the value of recorded nuclei count for COc1cc(NC(=O)Nc2cccc(C(C)=O)c2)cc(OC)c1OC
97.7

Return reported nuclei count. Input compound: Cc1cc(Cl)ccc1OCCCC(=O)N1CCOCC1
112

Tell me nuclei count reported for CCCCN(Cc1cc2cc(OC)ccc2[nH]c1=O)C(=O)COc1ccccc1
125

====

Entries and their nuclei count
- Test method notes: reduction of polyQ htt aggregates in cells – imaging, exon1htt(103Q)mCFP cells, high-content imaging, primary screen (AID 483);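 further: compound exposure lasted 3 days before fixation; percent of the per-plate median nuclei count of sample wells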
- Condition summary: exon1htt(103Q)mCFP cell line, aggregate imaging, at 2 µM; measured here: cell count, toxicity
Field: numeric (%). Do not append units.

Provide measured nuclei count value, entry: COC(=O)c1ccccc1NC(=O)C1CCCCC1C(=O)O (centres undefined)
98.8

Could you please provide reported nuclei count for CC(C)CNS(=O)(=O)c1ccc(CCC(=O)NCc2ccco2)cc1 ? Thanks!
85

Output measured nuclei count for this item: COc1ccc(CCNC(=O)CSc2nnc(CNc3ccc(Cl)cc3)o2)cc1OC
72.1

Output nuclei count of O=C1CC(Sc2nnc(-c3ccccc3)o2)C(=O)N1c1ccccc1 (centres undefined)
105

# return recorded nuclei count for input CCOC(=O)Nc1ccc(OC)cc1S(=O)(=O)N1CCCCC1
87.3

====

- Test method notes: endothelial E-selectin expression blockers – imaging, HUVEC, immunofluorescence, MLSMR starter and 10KST1 sets, primary screen (AID 487);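 on nuclei count: 100% = median nuclei count of all wells on the same plate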
- Condition summary: HUVEC TNFalpha-induced E-selectin immunofluorescence imaging, at 2 µM; measured here: cell number, toxicity
Parameter measured: nuclei count (%)
Field format: number, assumed %, no unit text.

Please review the following examples before continuing.
Compound	nuclei count, %
COc1ccc(OC)c(-n2nnnc2SCC(=O)NCc2ccc3c(c2)OCO3)c1	109
N#CC1=C(N)OC2=C(CCC/C2=C/c2ccoc2)C1c1ccoc1 (stereo unspecified)	115
O=C(CSc1nnc(-c2ccco2)n1CC1CCCO1)N1CCCCC1 (stereo unspecified)	107

Give me measured nuclei count, please, for this compound: COc1ccc(OC)c(C(=O)CSc2nc3ncccc3[nH]2)c1
99.6

Write down nuclei count measured for item COc1ccc(CNc2oc(-c3cccc4ccccc34)nc2C#N)cc1
86.1

Annotate the compound O=C(CCN1C(=O)c2ccccc2C1=O)Nc1ccc(F)cc1 with its measured nuclei count.
109

====

- Test method notes: endothelial E-selectin expression blockers – imaging, HUVEC, immunofluorescence, MLSMR starter and 10KST1 sets, primary screen (AID 487);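 on inhibition: signal is fraction of cell area covered by stained E-selectin grains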
- Condition summary: HUVEC TNFalpha-induced E-selectin immunofluorescence imaging, at 2 µM; stronger effect = higher value
Parameter measured: inhibition (%)
The figure you give is taken to be in %; do not add the unit.

Below, 6 compounds whose answers are already recorded.
Compound	inhibition, %
CSc1cccc(NC(=O)C2CCCN2S(=O)(=O)c2ccc3c(c2)CCC(=O)N3)c1 (stereo unspecified)	-72.3
CCN1CCN(C(=O)c2cc3c(=O)n(C)c4ccccc4c3n2C)CC1	-89.4
COc1cccc(CC(=O)Nn2c(C)nc3ccccc3c2=O)c1	-2
Nn1c(SCC(=O)Nc2ccc(S(=O)(=O)N3CCCC3)cc2)nnc1C(F)(F)F	-33.2
COCCCNS(=O)(=O)c1ccc2c(c1)CCN2C(C)=O	-31.6
CCOc1nc(-c2ccccc2)ccc1-c1noc(-c2cccnc2)n1	29.6

Input CN(C)Cc1cn(CCC(=O)O)c2ccccc12 , output reported inhibition.
9.1

Report inhibition for CC1Cc2ccccc2N1C(=O)CSc1nnc2n1C(C)(C)Cc1ccccc1-2 (stereo unspecified)
5.5

Provide only the value of recorded inhibition for CCOc1ccccc1N1C(=O)c2ccc(C(=O)Nc3cccnc3)cc2C1=O
-38.7

// fetch inhibition given entry CN(Cc1cccs1)CC(O)COCc1ccco1 (stereo unspecified)
-28.9

// Input: N#Cc1nc(COc2ccccc2Cl)oc1N1CCCCCC1 . Output its inhibition only.
17.1

====

- Experimental system: Voltage-gated potassium channel subunit beta-2 (Rattus norvegicus) (UniProt P62483)
- Sequence (P62483 whole entry, looked up): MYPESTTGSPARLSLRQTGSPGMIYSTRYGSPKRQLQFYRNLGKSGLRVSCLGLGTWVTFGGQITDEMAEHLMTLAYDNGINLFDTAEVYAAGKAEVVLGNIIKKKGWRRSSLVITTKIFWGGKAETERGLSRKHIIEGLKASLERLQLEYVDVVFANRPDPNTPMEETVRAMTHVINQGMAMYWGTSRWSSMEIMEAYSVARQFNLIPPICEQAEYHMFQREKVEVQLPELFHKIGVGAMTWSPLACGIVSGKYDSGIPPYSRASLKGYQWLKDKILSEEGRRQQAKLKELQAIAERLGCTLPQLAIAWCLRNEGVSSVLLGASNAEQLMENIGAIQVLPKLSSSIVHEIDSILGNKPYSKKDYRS
- Test method notes: enhancers of rat Kvbeta2 NADPH turnover – biochemical, NADPH fluorescence, primary screen (AID 623);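 further: fluorescence intensity change per second fitted from 20 to 320 s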
- Condition summary: Recombinant KvBeta, NADPH fluorescence decrease slope, 10 min; at 10 µM; stronger effect = lower value
The entries below are paired with their reported NADPH fluorescence slope.
Reply: number alone, nothing else.

Consider the following illustrative entries.
Molecule	Experimental system	NADPH fluorescence slope
Cc1c(NC(=O)c2ccc(COc3ccc4ccccc4c3)o2)c(=O)n(-c2ccccc2)n1C	Voltage-gated potassium channel subunit beta-2 (Rattus norvegicus) (UniProt P62483)	-2.6e-05
COc1ccc(C2=CC(=O)OC3(CCCCC3)O2)cc1	Voltage-gated potassium channel subunit beta-2 (Rattus norvegicus) (UniProt P62483)	-8.9e-05
Cc1cc(C(=O)Nc2sc3c(c2C#N)CCCCC3)cs1	Voltage-gated potassium channel subunit beta-2 (Rattus norvegicus) (UniProt P62483)	-1.2e-05
Cc1c(C(=O)Nc2nnc(C(F)(F)F)s2)oc2ccccc12	Voltage-gated potassium channel subunit beta-2 (Rattus norvegicus) (UniProt P62483)	2.3e-05
Cc1[nH]n(C(N)=S)c(=O)c1C(c1ccccc1)C(C#N)C#N (stereo unspecified)	Voltage-gated potassium channel subunit beta-2 (Rattus norvegicus) (UniProt P62483)	5.1e-06
O=C(Nc1nc(-c2ccccc2)cs1)C1CCCCN1S(=O)(=O)c1ccccc1 (stereo unspecified)	Voltage-gated potassium channel subunit beta-2 (Rattus norvegicus) (UniProt P62483)	1.4e-05

Using known records, supply NADPH fluorescence slope for O=C(OCCN=C1NS(=O)(=O)c2ccccc21)C1CC(=O)N(c2ccc(Cl)cc2)C1 (stereo unspecified)
2.4e-05

Specify NADPH fluorescence slope for CC(CCc1ccccc1)NC(=O)C1CCN(S(=O)(=O)c2cnc[nH]2)CC1 (stereo unspecified) and stop.
-5.5e-05

Give reported NADPH fluorescence slope value for O=C(COc1nnc2ccccn12)N1CCN(S(=O)(=O)c2ccccc2)CC1
-9.3e-05

Return NADPH fluorescence slope for the following molecule: Cc1cc(C)nc(N2CCCC(C(=O)Nc3nc4ccc(S(C)(=O)=O)cc4s3)C2)n1 (stereo unspecified)
9.7e-05

Using known records, supply NADPH fluorescence slope for Cc1sc2ncnc(OCC(=O)N3CCN(S(=O)(=O)c4ccccc4)CC3)c2c1C
3.8e-05

Tell me NADPH fluorescence slope reported for O=c1cc(CSc2nnc(COc3ccc(Cl)cc3)o2)c2ccccc2[nH]1
7.1e-08

Find the measured NADPH fluorescence slope of COC(=O)CCN(C(=O)c1ccc2c(c1)OCO2)c1ccccn1 and report it.
-4.5e-06

Give NADPH fluorescence slope for the following molecule: O=C(C1CCN(S(=O)(=O)c2cccnc2)CC1)N1CCN(c2ccc(Cl)cc2)CC1
3.3e-05

Give NADPH fluorescence slope for CC12CN3CCN(CC(C3)C1(O)CN1CCCCC1)C2 (stereo unspecified)
-5.6e-05

Please indicate NADPH fluorescence slope recorded for COc1cccc(C(c2nnnn2Cc2ccccc2)N2CCN(C(=O)c3ccco3)CC2)c1OC (stereo unspecified)
-2e-05

Item COc1ccc(C(O)Cn2c(=N)n(CCCN(C)C)c3ccccc32)cc1 (stereo unspecified) : provide NADPH fluorescence slope
2.2e-05

For the molecule CCCCn1nnnc1NCc1cccs1 , give its reported NADPH fluorescence slope.
-1.2e-05

Return the recorded NADPH fluorescence slope value; entry: O=C(CNCCC1=CCCCC1)Nc1ccccc1N1CCCCC1
-2.4e-05

Note NADPH fluorescence slope for the molecule shown: COc1ccc(-c2cc3nc4n(c(=O)c3s2)CCC4)cc1
-3.4e-05

Return reported NADPH fluorescence slope. Input molecule: Cc1ccc2c(c1)-c1c(cnn1CC(=O)Nc1ccccc1N1CCN(C)CC1)CO2
-9e-06

Please report the measured NADPH fluorescence slope for CCN(CC)C(c1ccc(C)cc1)c1nnnn1C1CCCCC1 (stereo unspecified)
-6.9e-05
